This collection of values is drawn from PubChem BioAssay (NCI).

System: SK-MEL-5 melanoma
Experiment: NCI-60 one-dose screen, 48 h
Conditions: 10 µM unless noted
This is part of a sample that, as a whole, favours compounds with a hit. Of some 83,000 tested, about 20% had one in any assay. Active and inactive are the calls of the source. Rule for the calls: active = growth percent below 10; inactive = the rest.
Outcomes you can answer with include only these: YES for active, NO for inactive

Recorded results for 4 molecules are shown here.
{"smiles.text": "CCOC(=O)NCCc1nc2c([nH]1)c(=O)n(C)c(=O)n2C", "label.value": "NO"}
{"smiles.text": "C#Cc1cccc(Nc2ncnc3ccc(NC(=O)c4ccccc4)cc23)c1", "label.value": "NO"}
{"smiles.text": "C[C@@H]1C(=O)[C@@H]2C[C@@H](O)[C@@H](O)C[C@]2(C)[C@H]2CC[C@@]3(C)C(=C12)CC[C@@H]3[C@@](C)(O)[C@H](O)CCC(C)(C)O", "label.value": "NO"}
{"smiles.text": "CCCNc1nc(C)[nH]c(=O)c1S", "label.value": "NO"}

Field: next molecule
**Query** Name the outcome recorded for COc1cc(-c2csc(NC(=O)Nc3ccc(C(F)(F)F)cc3)n2)cc(OC)c1OC in the assay.
**Result** YES

====

Tested on: HCC-2998 colon
Assay: NCI-60 one-dose screen, 48 h (100 = growth as untreated, 0 = no growth, -100 = all killed)
Settings: 10 µM unless noted
The panel holds about 83,000 compounds, 20% with a hit somewhere; the sample as a whole holds those more often.
measurement.kind: growth (%)
Report the value in % with no unit label.

{"compound": "COCCOC(=O)COc1ccc(OC)cc1", "growth, %": 111}
{"compound": "Cc1cnc(-c2ccc(-c3ccc(NC(=O)Nc4c(F)cc(F)cc4F)cc3F)c3c2C(=O)NC3)[nH]1", "growth, %": 60.5}
{"compound": "Cc1cc(C)nc(NS(=O)(=O)c2ccc(Nc3ccc4c5c(n(CCCN(C)C)c(=O)c4c3)-c3ccccc3C5=O)cc2)n1", "growth, %": 73.6}
{"compound": "C=C1C(=O)O[C@H]2[C@H]1CC/C(COC(=O)NCC(=O)Nc1ccc(OC)c(C(N)=O)c1O)=C\\CC[C@@]1(C)O[C@@H]21", "growth, %": 102}
{"compound": "Cc1ccc(C2=N[C@H]3CCC[C@@H]3N(c3ccccc3)C(C(Cl)Cl)=N2)cc1", "growth, %": 110}
{"compound": "COc1ccc(C2CC(c3ccc(OC)cc3O)=NN2c2ccc(S(N)(=O)=O)cc2)cc1 (centres undefined)", "growth, %": 54.4}
{"compound": "Cc1[nH]c(N=Nc2ccccc2)nc1N=Nc1ccccc1", "growth, %": 26.3}
{"compound": "COc1ccc(-c2cc(-c3nnc(SCC(=O)Nc4ccc(C(C)=O)cc4)o3)c3ccccc3n2)cc1", "growth, %": 96.5}

Now look at this one.
**Query** Which growth value is on record for COc1ccc(/C=C/C(=O)c2ccc(NC(=O)CSc3nnc(-c4ccc(OC)c(OC)c4)n3-c3ccccc3)cc2)cc1 ?
**Result** 94.9

====

The following molecules are listed with their measured growth values.
Tested on: U251 CNS
Experiment: NCI-60 one-dose screen, 48 h (100 = growth as untreated, 0 = no growth, -100 = all killed)
Conditions: 10 µM unless noted
Compounds without any hit were thinned out: in the full panel of roughly 83,000, 20% have a hit.
Report the value in % with no unit label.

{"molecule": "N#CC(C#N)=C1NC(c2ccccc2)=C(c2ccccc2)C(c2ccccc2Cl)=C1C#N", "recorded.measurement": 103}
{"molecule": "CC(C)(C)c1ccc2oc(=O)n(SC(Cl)(Cl)Cl)c2c1", "recorded.measurement": 104}
{"molecule": "O=c1c2ccccc2n(CC(O)CN2CCCC2)c2c(Br)cccc12 (centres undefined)", "recorded.measurement": 98.8}
{"molecule": "Nc1cc(N)nc(SCC(=O)O)n1", "recorded.measurement": 93.4}
{"molecule": "C=C1C(=O)O[C@H]2[C@H]1CC/C(COC(=O)Nc1nc3ccccc3[nH]1)=C\\CC[C@@]1(C)O[C@@H]21", "recorded.measurement": 90.2}

**Query** Which growth value is on record for COC(=O)c1nc(-c2ccccc2)oc1S(=O)(=O)n1nc(-c2ccccc2)cc1N ?
**Result** 97

**Query** Which growth value is on record for C#C[C@@]1(O)[C@@H](CO)O[C@@H](n2cc(Cl)c3c(N)ccnc32)[C@@H]1O ?
**Result** 16

**Query** Which growth value is on record for COc1cc(/C=C/C(=O)/C=C/c2cc3ccc(Cl)cc3n(Cc3ccccc3)c2=O)ccc1O ?
**Result** -64.7

**Query** Which growth value is on record for Cc1ccc(CS/C(=C\c2ccc([N+](=O)[O-])cc2)C(=O)c2ccc(F)cc2)cc1 ?
**Result** -20.4

**Query** Which growth value is on record for C=C1C(=O)O[C@H]2[C@H]1CC/C(COC(=O)c1cc3ccccc3o1)=C\CC[C@@]1(C)O[C@@H]21 ?
**Result** 15.4

**Query** Which growth value is on record for Cc1cc(Nc2nc(SCc3ccc(C(=O)Nc4ccc(F)cc4N)cc3)nn3cccc23)n[nH]1 ?
**Result** 25

**Query** Which growth value is on record for O=C1CCC23OC(C(O)c4ccccc4N12)C1C(Br)=NOC13 (centres undefined) ?
**Result** 107

**Query** Which growth value is on record for COc1ccc(-c2cc(-c3nnc(SCC(=O)Nc4ccc(/C(C)=N\O)cc4)o3)c3ccccc3n2)cc1 ?
**Result** 101

**Query** Which growth value is on record for COc1ccc(NC(=O)c2ccc(Nc3ncnc4[nH]c(C)c(C)c34)cc2)cc1 ?
**Result** 101

**Query** Which growth value is on record for CN1CCN(/C=C2\CC(C(=O)NCc3ccc(Cl)cc3Cl)NC2=O)CC1 (centres undefined) ?
**Result** 100

**Query** Which growth value is on record for Nc1c(C(=O)Nc2ccccc2Cl)sc2nc3c(cc12)CN(Cc1ccccc1)CC3 ?
**Result** 114

**Query** Which growth value is on record for O=c1nc(-c2ccccc2)c2cc(-c3ccc(N4CCCC4)nc3)ccc2[nH]1 ?
**Result** 67.5
